# system.name: B. subtilis PBP4a (Bacillus subtilis)
measure: Ki (µM)
Answers are plain numbers, in µM.

Form: item CC(NC(=O)CCCC[C@@H](N)C(=O)O)C(=O)C(F)(F)F (stereo partly shown) [Compound 12] ; test system B. subtilis PBP4a (Bacillus subtilis); Ki: 13.5

====

# system.name: Actinomadura R39 DD-peptidase (Actinomadura sp.)
# Sequence (P39045 50-538): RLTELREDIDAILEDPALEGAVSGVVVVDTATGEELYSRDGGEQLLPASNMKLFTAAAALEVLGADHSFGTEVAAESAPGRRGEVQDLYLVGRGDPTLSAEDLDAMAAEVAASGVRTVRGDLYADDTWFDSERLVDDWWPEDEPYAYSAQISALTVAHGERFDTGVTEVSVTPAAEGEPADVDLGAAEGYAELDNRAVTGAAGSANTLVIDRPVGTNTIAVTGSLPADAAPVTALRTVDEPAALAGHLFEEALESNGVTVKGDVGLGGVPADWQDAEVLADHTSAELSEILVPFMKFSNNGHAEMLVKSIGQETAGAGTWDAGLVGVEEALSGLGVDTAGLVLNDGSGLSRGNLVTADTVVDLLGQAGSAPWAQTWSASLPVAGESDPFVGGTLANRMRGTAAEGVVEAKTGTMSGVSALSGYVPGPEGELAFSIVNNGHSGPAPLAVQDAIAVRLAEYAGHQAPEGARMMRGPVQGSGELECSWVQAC
# Format: biochemical
measure: pKi
Numbers only, as −log10 of the molar value.

Entry under test: CC(NC(=O)CCCC[C@@H](N)C(=O)O)C(=O)C(F)(F)F (stereo partly shown) . Its pKi was 6.43
